Assay: Enzymatic degradation in rat brain homogenate
Format: in vitro ADME
Settings: 37°C, up to 60 min
Procedure: Enzymatic degradation of EM-2 and the analogs was performed measuring their hydrolysis rates in the presence of rat brain homogenate. The homogenate was prepared prior to the experiment. Briefly, rat brains were homogenized in 20 volumes of Tris–HCl (50 mM, pH 7.4) using a Polytron and the obtained aliquots were stored at −80°C. […] Degradation half-lives (t1/2) were calculated from the rate constants as ln2/k.
Recorded 100 x k, rate constant of degradation by entry
Respond with the bare value in per min.

compound="Cc1cc(O)cc(C)c1C[C@H](N)C(=O)N1CCC[C@H]1C(=O)NC[C@@H](Cc1cccc2ccccc12)C(=O)N[C@@H](Cc1ccccc1)C(N)=O [analog 11, Dmt-Pro-(R)-β ^ 2 -1-Nal-Phe-NH2]" measured_parameter="100 x k, rate constant of degradation" quantitative_result=0.56
compound="NC(=O)[C@H](Cc1ccccc1)NC(=O)[C@@H](CNC(=O)[C@@H]1CCCN1C(=O)[C@@H](N)Cc1ccc(O)cc1)Cc1cccc2ccccc12 [analog 10, Tyr-Pro-(R)-β ^ 2 -1-Nal-Phe-NH2]" measured_parameter="100 x k, rate constant of degradation" quantitative_result=0.41

Query compound follows.
The recorded 100 x k, rate constant of degradation for Cc1cc(O)cc(C)c1C[C@H](N)C(=O)N1CCC[C@H]1C(=O)N[C@@H](CC(=O)N[C@@H](Cc1ccccc1)C(N)=O)Cc1cccc2ccccc12 [analog 13, Dmt-Pro-(R)-β ^ 3 -1-Nal-Phe-NH2] is 1.69

====

molecular target: delta-opioid receptor (Homo sapiens, UniProt P41143); test: Radioligand binding, [3H]deltorphin-2 displacement, CHO cell membranes; set-up: purchased; host or cells: CHO cells (membranes)
Sequence (P41143 whole entry): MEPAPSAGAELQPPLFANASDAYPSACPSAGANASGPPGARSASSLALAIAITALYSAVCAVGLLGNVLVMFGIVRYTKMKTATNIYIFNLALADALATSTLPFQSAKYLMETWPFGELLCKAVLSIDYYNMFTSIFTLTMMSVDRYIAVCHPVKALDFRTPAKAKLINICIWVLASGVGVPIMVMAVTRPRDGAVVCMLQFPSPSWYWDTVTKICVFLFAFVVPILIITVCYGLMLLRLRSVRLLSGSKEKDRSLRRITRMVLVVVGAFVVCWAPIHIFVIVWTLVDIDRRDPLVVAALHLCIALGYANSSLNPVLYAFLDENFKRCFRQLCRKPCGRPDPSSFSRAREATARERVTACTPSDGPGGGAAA
Non-standard residues stand in square brackets, D forms with d. Residues, ends and D or L forms follow the SMILES beside them. Dmt = Cc1cc(O)cc(C)c1C[C@H](N)C(=O)O; d(β3hA) = C[C@@H](N)CC(=O)O
measured parameter: pKi
Quick note: pKi values are minus log10 of concentrations in mol/L.

molecule="Cc1cc(O)cc(C)c1C[C@H](N)C(=O)N1CCC[C@@H](C(=O)N[C@@H](Cc2ccccc2)C(=O)N[C@@H](Cc2ccccc2)C(N)=O)C1 [analog 5, Dmt-(R)-Nip-Phe-Phe-NH2]" tested_system="delta-opioid receptor (Homo sapiens, UniProt P41143)" measured_parameter=pKi quantitative_result=6.23

Query molecule follows.
The recorded pKi for Cc1cc(O)cc(C)c1C[C@H](N)C(=O)N[C@H](C)CC(=O)N[C@@H](Cc1ccccc1)C(=O)N[C@@H](Cc1ccccc1)C(N)=O [analog 9, Dmt-(R)-β ^ 3 -Ala-Phe-Phe-NH2] (H-[Dmt][d(β3hA)]FF-NH2; N-terminus assumed) is 6.54

====

target: human mu receptor (Homo sapiens, UniProt P35372); construct: expressed in transfected cells; host or cells: CHO cells stably co-expressing Gαqi5; test: Calcium mobilization assay, CHO mu cells expressing Gαqi5; assay type: cell-based; settings: intrinsic activity, Emax ratio to standard agonist EM-2; inactive = inactive up to 10 µM
Sequence (P35372 whole entry): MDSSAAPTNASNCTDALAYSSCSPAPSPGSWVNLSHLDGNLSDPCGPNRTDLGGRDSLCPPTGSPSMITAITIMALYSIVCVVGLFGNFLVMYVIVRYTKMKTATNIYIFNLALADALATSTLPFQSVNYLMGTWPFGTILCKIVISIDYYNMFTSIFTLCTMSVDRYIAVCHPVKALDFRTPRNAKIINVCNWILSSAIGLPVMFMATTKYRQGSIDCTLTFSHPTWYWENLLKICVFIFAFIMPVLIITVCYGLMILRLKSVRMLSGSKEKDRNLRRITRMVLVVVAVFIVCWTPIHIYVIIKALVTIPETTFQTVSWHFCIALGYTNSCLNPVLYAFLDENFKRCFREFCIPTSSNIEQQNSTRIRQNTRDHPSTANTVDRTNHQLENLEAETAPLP
Non-standard residues stand in square brackets, D forms with d. Residues, ends and D or L forms follow the SMILES beside them. d(β3hA) = C[C@@H](N)CC(=O)O
measured parameter: mu α±SEM
Lab note: write the figure by itself, no unit.

The cases that follow already have their mu α±SEM on record.
compound="C[C@H](CNC(=O)[C@@H](N)Cc1ccc(O)cc1)C(=O)N[C@@H](Cc1ccccc1)C(=O)N[C@@H](Cc1ccccc1)C(N)=O [analog 6, Tyr-(R)-β ^ 2 -Ala-Phe-Phe-NH2]" quantitative_result=0.88
compound="NC(=O)[C@H](Cc1ccccc1)NC(=O)[C@@H](CNC(=O)[C@@H]1CCCN1C(=O)[C@@H](N)Cc1ccc(O)cc1)Cc1cccc2ccccc12 [analog 10, Tyr-Pro-(R)-β ^ 2 -1-Nal-Phe-NH2]" quantitative_result=0.25
compound="Cc1cc(O)cc(C)c1C[C@H](N)C(=O)N1CCCC[C@@H]1C(=O)N[C@@H](Cc1ccccc1)C(=O)N[C@@H](Cc1ccccc1)C(N)=O [analog 3, Dmt-(R)-Pip-Phe-Phe-NH2]" quantitative_result=0.70

The recorded mu α±SEM for Cc1cc(O)cc(C)c1C[C@H](N)C(=O)NC[C@@H](C)C(=O)N[C@@H](Cc1ccccc1)C(=O)N[C@@H](Cc1ccccc1)C(N)=O [analog 7, Dmt-(R)-β ^ 2 -Ala-Phe-Phe-NH2] is 0.95

The recorded mu α±SEM for Cc1cc(O)cc(C)c1C[C@H](N)C(=O)N1CCC[C@@H](C(=O)N[C@@H](Cc2ccccc2)C(=O)N[C@@H](Cc2ccccc2)C(N)=O)C1 [analog 5, Dmt-(R)-Nip-Phe-Phe-NH2] is 1.00

The recorded mu α±SEM for NC(=O)[C@H](Cc1ccccc1)NC(=O)[C@H](Cc1ccccc1)NC(=O)[C@@H]1CCCN(C(=O)[C@@H](N)Cc2ccc(O)cc2)C1 [analog 4, Tyr-(R)-Nip-Phe-Phe-NH2] is 0.99

The recorded mu α±SEM for NC(=O)[C@H](Cc1ccccc1)NC(=O)C[C@@H](Cc1cccc2ccccc12)NC(=O)[C@@H]1CCCN1C(=O)[C@@H](N)Cc1ccc(O)cc1 [analog 12, Tyr-Pro-(R)-β ^ 3 -1-Nal-Phe-NH2] is 0.97

The recorded mu α±SEM for C[C@H](CC(=O)N[C@@H](Cc1ccccc1)C(=O)N[C@@H](Cc1ccccc1)C(N)=O)NC(=O)[C@@H](N)Cc1ccc(O)cc1 [analog 8, Tyr-(R)-β ^ 3 -Ala-Phe-Phe-NH2] (H-Y[d(β3hA)]FF-NH2; N-terminus assumed) is 0.99

====

molecular target: delta-opioid receptor (Homo sapiens, UniProt P41143); assay: Radioligand binding, [3H]deltorphin-2 displacement, CHO cell membranes; design: purchased; host or cells: CHO cells (membranes); conditions: [3H]deltorphin-2, n ≥ 3; read-out: Ki ± SEM, Delta
Recorded Ki by entry

compound="NC(=O)[C@H](Cc1ccccc1)NC(=O)[C@H](Cc1ccccc1)NC(=O)[C@@H]1CCCN(C(=O)[C@@H](N)Cc2ccc(O)cc2)C1 [analog 4, Tyr-(R)-Nip-Phe-Phe-NH2]" tested_system="delta-opioid receptor (Homo sapiens, UniProt P41143)" result="> 1 µM"

The recorded Ki for C[C@H](CNC(=O)[C@@H](N)Cc1ccc(O)cc1)C(=O)N[C@@H](Cc1ccccc1)C(=O)N[C@@H](Cc1ccccc1)C(N)=O [analog 6, Tyr-(R)-β ^ 2 -Ala-Phe-Phe-NH2] is > 1 µM

====

molecular target: human mu receptor (Homo sapiens); construct: expressed in transfected cells; host or cells: CHO cells stably co-expressing Gαqi5; experiment: Calcium mobilization assay, CHO mu cells expressing Gαqi5; assay type: cell-based; conditions: intrinsic activity, Emax ratio to standard agonist EM-2; inactive = inactive up to 10 µM
Recorded mu α±SEM by entry
Lab note: write the figure by itself, no unit.

The cases that follow already have their mu α±SEM on record.
compound="Cc1cc(O)cc(C)c1C[C@H](N)C(=O)N1CCC[C@H]1C(=O)NC[C@@H](Cc1cccc2ccccc12)C(=O)N[C@@H](Cc1ccccc1)C(N)=O [analog 11, Dmt-Pro-(R)-β ^ 2 -1-Nal-Phe-NH2]" tested_system="human mu receptor (Homo sapiens)" measured_parameter="mu α±SEM" quantitative_result=0.57
compound="NC(=O)[C@H](Cc1ccccc1)NC(=O)[C@H](Cc1ccccc1)NC(=O)[C@H]1CCCCN1C(=O)[C@@H](N)Cc1ccc(O)cc1 [analog 2, Tyr-(R)-Pip-Phe-Phe-NH2]" tested_system="human mu receptor (Homo sapiens)" measured_parameter="mu α±SEM" quantitative_result=0.64

Query compound follows.
The recorded mu α±SEM for Cc1cc(O)cc(C)c1C[C@H](N)C(=O)N1CCC[C@H]1C(=O)N[C@@H](CC(=O)N[C@@H](Cc1ccccc1)C(N)=O)Cc1cccc2ccccc12 [analog 13, Dmt-Pro-(R)-β ^ 3 -1-Nal-Phe-NH2] is 0.77

====

target: human kappa receptor (Homo sapiens, UniProt P41145); construct: expressed in transfected cells; host or cells: CHO cells stably co-expressing Gαqi5; assay: Calcium mobilization assay, CHO kappa cells expressing Gαqi5; type: cell-based; settings: calcium mobilization; inactive = inactive up to 10 µM
Sequence (P41145 whole entry): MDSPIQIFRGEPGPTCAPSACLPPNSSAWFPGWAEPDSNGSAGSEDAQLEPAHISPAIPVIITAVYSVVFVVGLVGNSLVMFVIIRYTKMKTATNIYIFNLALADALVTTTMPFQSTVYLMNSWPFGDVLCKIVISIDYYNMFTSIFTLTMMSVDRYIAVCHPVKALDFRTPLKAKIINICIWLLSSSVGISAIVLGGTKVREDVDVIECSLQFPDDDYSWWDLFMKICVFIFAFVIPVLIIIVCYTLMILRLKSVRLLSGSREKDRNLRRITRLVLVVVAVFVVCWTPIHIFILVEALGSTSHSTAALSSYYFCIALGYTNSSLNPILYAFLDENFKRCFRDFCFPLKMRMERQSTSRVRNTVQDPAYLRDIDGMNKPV
Non-standard residues stand in square brackets, D forms with d. Residues, ends and D or L forms follow the SMILES beside them. d(β3hA) = C[C@@H](N)CC(=O)O
measured parameter: Kappa pEC50 (CL95%)

The cases that follow already have their Kappa pEC50 (CL95%) on record.
molecule="NC(=O)[C@H](Cc1ccccc1)NC(=O)C[C@@H](Cc1cccc2ccccc12)NC(=O)[C@@H]1CCCN1C(=O)[C@@H](N)Cc1ccc(O)cc1 [analog 12, Tyr-Pro-(R)-β ^ 3 -1-Nal-Phe-NH2]" result=inactive
molecule="C[C@H](CC(=O)N[C@@H](Cc1ccccc1)C(=O)N[C@@H](Cc1ccccc1)C(N)=O)NC(=O)[C@@H](N)Cc1ccc(O)cc1 [analog 8, Tyr-(R)-β ^ 3 -Ala-Phe-Phe-NH2] (H-Y[d(β3hA)]FF-NH2; N-terminus assumed)" result=inactive
molecule="Cc1cc(O)cc(C)c1C[C@H](N)C(=O)N1CCC[C@@H](C(=O)N[C@@H](Cc2ccccc2)C(=O)N[C@@H](Cc2ccccc2)C(N)=O)C1 [analog 5, Dmt-(R)-Nip-Phe-Phe-NH2]" result=inactive
molecule="Cc1cc(O)cc(C)c1C[C@H](N)C(=O)N1CCCC[C@@H]1C(=O)N[C@@H](Cc1ccccc1)C(=O)N[C@@H](Cc1ccccc1)C(N)=O [analog 3, Dmt-(R)-Pip-Phe-Phe-NH2]" result=inactive
molecule="NC(=O)[C@H](Cc1ccccc1)NC(=O)[C@@H](CNC(=O)[C@@H]1CCCN1C(=O)[C@@H](N)Cc1ccc(O)cc1)Cc1cccc2ccccc12 [analog 10, Tyr-Pro-(R)-β ^ 2 -1-Nal-Phe-NH2]" result=inactive

The recorded Kappa pEC50 (CL95%) for C[C@H](CNC(=O)[C@@H](N)Cc1ccc(O)cc1)C(=O)N[C@@H](Cc1ccccc1)C(=O)N[C@@H](Cc1ccccc1)C(N)=O [analog 6, Tyr-(R)-β ^ 2 -Ala-Phe-Phe-NH2] is inactive

The recorded Kappa pEC50 (CL95%) for NC(=O)[C@H](Cc1ccccc1)NC(=O)[C@H](Cc1ccccc1)NC(=O)[C@H]1CCCCN1C(=O)[C@@H](N)Cc1ccc(O)cc1 [analog 2, Tyr-(R)-Pip-Phe-Phe-NH2] is inactive

These measurements were taken from paper PMC9998502.
